These data points were gathered from ChEMBL document CHEMBL3745703.

assayed.system: P2X purinoceptor 7 (Rattus norvegicus, UniProt Q64663)
Sequence (Q64663 whole entry): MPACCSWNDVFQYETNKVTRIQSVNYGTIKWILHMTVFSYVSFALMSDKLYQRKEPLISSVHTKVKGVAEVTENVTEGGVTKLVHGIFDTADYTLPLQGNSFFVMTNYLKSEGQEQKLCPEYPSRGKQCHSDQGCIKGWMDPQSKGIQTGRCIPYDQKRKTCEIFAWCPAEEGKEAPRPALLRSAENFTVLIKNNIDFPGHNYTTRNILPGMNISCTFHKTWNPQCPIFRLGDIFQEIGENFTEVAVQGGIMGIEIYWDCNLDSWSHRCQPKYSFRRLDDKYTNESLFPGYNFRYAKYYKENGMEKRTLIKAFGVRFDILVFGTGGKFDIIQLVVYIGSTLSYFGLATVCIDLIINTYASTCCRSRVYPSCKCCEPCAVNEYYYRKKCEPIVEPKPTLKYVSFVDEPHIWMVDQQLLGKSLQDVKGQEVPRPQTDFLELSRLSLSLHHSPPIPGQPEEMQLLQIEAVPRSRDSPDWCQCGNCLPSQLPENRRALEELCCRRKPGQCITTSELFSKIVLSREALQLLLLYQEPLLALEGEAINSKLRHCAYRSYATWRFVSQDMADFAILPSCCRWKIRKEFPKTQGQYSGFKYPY
assay.method.text: Antagonist activity at rat P2X7 receptor expressed in 1321N1 cells assessed as inhibition of Bz-ATP-induced Ca2+ flux after 30 mins by FLIPR assay
Entries and their IC50
readout.kind: IC50 (µM)

- O=C1c2nnc(-c3cnccn3)n2CCN1Cc1cccc(C(F)(F)F)c1Cl: 8.67
- C[C@H]1Cn2c(nnc2-c2ccn(C)n2)C(=O)N1Cc1cccc(C(F)(F)F)c1Cl: 0.96
- C[C@H]1Cn2c(nnc2-c2cccnc2)C(=O)N1Cc1cccc(C(F)(F)F)c1Cl: 0.088
- C[C@H]1Cn2c(nnc2-c2cnccn2)C(=O)N1Cc1cccc(C(F)(F)F)c1: 4.14

###

assay.method.text: Volume of distribution at steady state in rat at 1 mg/kg, iv and 5 mg/kg, po
Format: ADME, organism-based
study.conditions: in vivo, read-out: Vdss
Entries and their Vd
readout.kind: Vd (L/kg)

* C[C@H]1Cn2c(nnc2-c2cc[nH]n2)C(=O)N1Cc1cccc(C(F)(F)F)c1Cl | 4.2
* C[C@H]1Cn2c(nnc2-c2cccnc2)C(=O)N1Cc1cccc(C(F)(F)F)c1Cl | 5
* C[C@H]1Cn2c(nnc2-c2ncccn2)C(=O)N1Cc1cccc(C(F)(F)F)c1Cl | 3.3
* C[C@H]1Cn2c(nnc2-c2cnccn2)C(=O)N1Cc1cccc(C(F)(F)F)c1Cl | 1.5

###

Entries and their Papp B→A
assay.method.text: Apparent permeability from basolateral to apical side in human Caco2 cells
Format: ADME, cell-based
study.conditions: Caco-2
readout.kind: Papp B→A

* C[C@H]1Cn2c(nnc2-c2ncccn2)C(=O)N1Cc1cccc(C(F)(F)F)c1Cl | 64 ×10⁻⁶ cm/s
* C[C@H]1Cn2c(nnc2-c2cccnc2)C(=O)N1Cc1cccc(C(F)(F)F)c1Cl | 73 ×10⁻⁶ cm/s
* C[C@H]1Cn2c(nnc2-c2cc[nH]n2)C(=O)N1Cc1cccc(C(F)(F)F)c1Cl | 65 ×10⁻⁶ cm/s
* C[C@H]1Cn2c(nnc2-c2cnccn2)C(=O)N1Cc1cccc(C(F)(F)F)c1Cl | 50 ×10⁻⁶ cm/s

###

Entries and their solubility thermodynamic
assay.method.text: Aqueous equilibrium solubility of the compound at pH 7
Assay type: physicochemical
readout.kind: solubility thermodynamic (µM)

* C[C@H]1Cn2c(nnc2-c2cc[nH]n2)C(=O)N1Cc1cccc(C(F)(F)F)c1Cl | 95
* C[C@H]1Cn2c(nnc2-c2ncccn2)C(=O)N1Cc1cccc(C(F)(F)F)c1Cl | 201
* C[C@H]1Cn2c(nnc2-c2cccnc2)C(=O)N1Cc1cccc(C(F)(F)F)c1Cl | 375
* C[C@H]1Cn2c(nnc2-c2cnccn2)C(=O)N1Cc1cccc(C(F)(F)F)c1Cl | 56

###

assay.method.text: Ratio of drug level in brain to plasma in Sprague-Dawley rat at 10 mg/kg, po
Type: ADME, organism-based
study.conditions: read-out: BPR
readout.kind: Kp

- C[C@H]1Cn2c(nnc2-c2cnccn2)C(=O)N1Cc1cccc(C(F)(F)F)c1Cl: 0.7

###

assayed.system: P2X purinoceptor 7 (Homo sapiens, UniProt Q99572)
Sequence (Q99572 whole entry): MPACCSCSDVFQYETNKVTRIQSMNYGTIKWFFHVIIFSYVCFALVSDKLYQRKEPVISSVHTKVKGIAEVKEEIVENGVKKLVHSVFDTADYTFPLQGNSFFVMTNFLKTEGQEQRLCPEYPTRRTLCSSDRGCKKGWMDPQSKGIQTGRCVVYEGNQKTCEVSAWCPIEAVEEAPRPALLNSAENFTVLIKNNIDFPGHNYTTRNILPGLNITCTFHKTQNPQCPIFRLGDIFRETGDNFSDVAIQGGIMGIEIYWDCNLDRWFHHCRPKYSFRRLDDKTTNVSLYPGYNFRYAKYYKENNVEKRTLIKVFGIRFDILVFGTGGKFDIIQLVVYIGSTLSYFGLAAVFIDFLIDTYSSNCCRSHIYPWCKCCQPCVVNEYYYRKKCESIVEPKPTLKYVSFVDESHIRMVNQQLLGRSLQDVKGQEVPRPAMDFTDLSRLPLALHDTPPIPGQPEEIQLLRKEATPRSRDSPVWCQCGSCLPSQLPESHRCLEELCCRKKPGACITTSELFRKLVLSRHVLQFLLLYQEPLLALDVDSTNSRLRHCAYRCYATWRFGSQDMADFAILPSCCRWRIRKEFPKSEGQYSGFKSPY
assay.method.text: Antagonist activity at human P2X7 receptor expressed in 1321N1 cells assessed as inhibition of Bz-ATP-induced Ca2+ flux after 30 mins by FLIPR assay
pIC50: −log10 of the molar value.
pIC50 below 8 gives false (0); pIC50 at or above it gives true (1).

• C[C@H]1Cn2c(nnc2-c2cccnc2)C(=O)N1Cc1cccc(C(F)(F)F)c1Cl = true (1)
• C[C@H]1Cn2c(nnc2-c2ccc(F)cn2)C(=O)N1Cc1cccc(C(F)(F)F)c1Cl = true (1)
• O=C1c2nnc(-c3cnccn3)n2CCN1Cc1cccc(C(F)(F)F)c1Cl = false (0)
• C[C@H]1Cn2c(nnc2-c2ccn(C)n2)C(=O)N1Cc1cccc(C(F)(F)F)c1Cl = true (1)
• C[C@H]1Cn2c(nnc2-c2ccccn2)C(=O)N1Cc1cccc(C(F)(F)F)c1Cl = true (1)
• C[C@H]1Cn2c(nnc2-c2cnccn2)C(=O)N1Cc1cccc(C(F)(F)F)c1 = true (1)
• O=C1c2nnn(-c3cnccn3)c2CCN1Cc1cccc(C(F)(F)F)c1Cl = false (0)
